target: Peptide 1: Biotin-…-[Tyr(PC)]-acid; assay: scFv ELISA
Sequence (peptide, as listed by the source): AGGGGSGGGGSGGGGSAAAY
Below, each of the binders is paired with its reported OD450 value.
Use OD450 as the unit, but write only the number.

# count of solved cases: 4
PcOxP_DB04_C10 (scFv, V domains shown, scFv in periplasmic extract) VH: EVQLLESGGGLVQPGGSLRLSCAASGFTFSDGYMEWVRQAPGKGLEWVAAIRNKANDYTTEYADSVKGRFTISRDNSKNTLYLQMNSLRAEDTAVYYCARDYYGSHYWYFDVWGQGTLVTVSS VL: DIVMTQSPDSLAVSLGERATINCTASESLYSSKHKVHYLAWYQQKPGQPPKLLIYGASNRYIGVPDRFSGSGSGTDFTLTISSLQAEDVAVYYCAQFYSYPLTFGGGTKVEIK :: 0.54
PcOxP_DB04_B01 (scFv, V domains shown, scFv in periplasmic extract) VH: EVQLLESGGGLVQPGGSLRLSCAASGFTQSDFYMEWVRQAPGKGLEWVAASRNKANDYTTEYADSVKGRFTISRDNSKNTLYLQMNSLRAEDTAVYYCARDYYGESYWYFDVWGQGTLVTVSS VL: DIVMTQSPDSLAVSLGERATINCTASVSLYSSKHKVHYLAWYQQKPGQPPKLLIYGPSNRYIGVPDRFSGSGSGTDFTLTISSLQAEDVAVYYCAQFYSYPLTFGGGTKVEIK :: 0.45
PcOxP_DB02_B04 (scFv, V domains shown, scFv in periplasmic extract) VH: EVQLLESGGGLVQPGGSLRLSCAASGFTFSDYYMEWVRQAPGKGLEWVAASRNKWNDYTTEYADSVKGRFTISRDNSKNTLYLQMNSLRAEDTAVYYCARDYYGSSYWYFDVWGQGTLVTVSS VL: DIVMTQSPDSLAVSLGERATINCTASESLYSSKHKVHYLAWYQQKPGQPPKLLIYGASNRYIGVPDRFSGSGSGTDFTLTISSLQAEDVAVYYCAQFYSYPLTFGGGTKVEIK :: 0.75
PcOxP_DB01_C01 (scFv, V domains shown, scFv in periplasmic extract) VH: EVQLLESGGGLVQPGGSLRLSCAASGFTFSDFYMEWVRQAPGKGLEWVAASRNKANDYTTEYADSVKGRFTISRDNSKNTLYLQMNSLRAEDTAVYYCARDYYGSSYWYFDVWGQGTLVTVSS VL: DIQMTQSPSSLSASVGDRVTITCVASESLYSSKHKVHYLAWYQQKPGKAPKLLIYGASNRYIGVPSRFSGSGSGTDFTLTISSLQPEDFATYYCAQFYSYPLTFGGGTKVEIK :: 0.71

Please examine the following record next.
Consider the binder shown here: PcOxP_DB01_E03 (scFv, V domains shown, scFv in periplasmic extract) VH: EVQLLESGGGLVQPGGSLRLSCAASGFGFSDFYMEWVRQAPGKGLEWVGASRNKHNDYTTEYADSVKGRFTISRDNSKNTLYLQMNSLRAEDTAVYYCARDYYGSSYWYFDVWGQGTLVTVSS VL: DIVMTQSPDSLAVSLGERATINCKSSESVYSSKHKKHYLAWYQQKPGQPPKLLIYGASNRYIGVPDRFSGSGSGTDFTLTISSLQAEDVAVYYCAQFYSYPLTFGGGTKVEIK What is its recorded OD450? 0.86
